Reference source for all entries: patent US3974140A

Field: MIC. Provide a value for each of the molecules that follow.
System: Proteus vulg. 1017
TEST METHOD NOTES: MIC, liquid medium test tube series dilution test
Format: cell-based, Proteus vulgaris
PROTOCOL CONDITIONS: Proteus vulg. 1017, 24 hours, 37°C
Answers are plain numbers, in units/ml.

Return reported MIC values for all items listed beneath this line.
1. Cc1ccccc1C(=O)N(C)C(=O)N[C@@H](C(=O)N[C@@H]1C(=O)N2[C@@H]1SC(C)(C)[C@@H]2C(=O)O)c1ccccc1 [Example 129]
2. CN(C)C(=O)N(C)C(=O)N[C@@H](C(=O)N[C@@H]1C(=O)N2[C@@H]1SC(C)(C)[C@@H]2C(=O)O)c1ccccc1 [Example 94]
3. COc1ccc(C(=O)N(C)C(=O)N[C@@H](C(=O)N[C@@H]2C(=O)N3[C@@H]2SC(C)(C)[C@@H]3C(=O)O)c2ccccc2)cc1[N+](=O)[O-] [Example 83]
4. CC(C)OC(=O)N(C)C(=O)N[C@@H](C(=O)N[C@@H]1C(=O)N2[C@@H]1SC(C)(C)[C@@H]2C(=O)O)c1ccccc1 [Example 97]
5. CN(C(=O)CCC(F)(F)F)C(=O)N[C@@H](C(=O)N[C@@H]1C(=O)N2[C@@H]1SC(C)(C)[C@@H]2C(=O)O)c1ccccc1 [Example 69]

1. 3.12
2. 100
3. 25
4. 25
5. 12.5

----------
Tested on: Staph. aureus 1777 E
TEST METHOD NOTES: MIC, liquid medium test tube series dilution test
Format: cell-based, Staphylococcus aureus
PROTOCOL CONDITIONS: 24 hours, 37°C
Procedure: The chemotherapeutic activity of the new penicillins was tested in vivo and in vitro. The in vitro inhibition values (MIC = minimum inhibition concentration (see Tables 1 and 2) were determined in a liquid medium in the test tube series dilution test, with readings being taken after 24 hours' incubation at 37°C. The MIC is indicated by the non-turbid test tube in the dilution series. A complete medium of the following composition was used as the nutrient medium: […]
MEASURED METRIC: MIC (units/ml)
Give bare numbers, in units/ml.

State the recorded MIC for this entry: CN(C(=O)N[C@@H](C(=O)N[C@@H]1C(=O)N2[C@@H]1SC(C)(C)[C@@H]2C(=O)O)c1ccccc1)C(=O)N1CCCC1
25

---
State the recorded MIC for this entry: CC(=O)N(C)C(=O)NC(C(=O)N[C@@H]1C(=O)N2[C@@H]1SC(C)(C)[C@@H]2C(=O)O)c1ccc(C)cc1 (stereo partly drawn)
100

----------
Test system: Psdm. aerug. Walter
TEST METHOD NOTES: MIC, liquid medium test tube series dilution test
Type: cell-based, Pseudomonas aerug.
PROTOCOL CONDITIONS: 24 hours, 37°C
MEASURED METRIC: MIC (units/ml)
Answers are plain numbers, in units/ml.

Some compounds with recorded MIC:
State the recorded MIC for this entry: CN(C(=O)N[C@@H](C(=O)N[C@@H]1C(=O)N2[C@@H]1SC(C)(C)[C@@H]2C(=O)O)c1ccccc1)C(=O)OC1CCCCC1 [Example 29]
50

Next: CN(C(=O)CCCCl)C(=O)N[C@@H](C(=O)N[C@@H]1C(=O)N2[C@@H]1SC(C)(C)[C@@H]2C(=O)O)c1ccccc1 [Example 2]
100

Next: Cc1ccc(C(NC(=O)N(C)C(=O)c2ccccc2F)C(=O)N[C@@H]2C(=O)N3[C@@H]2SC(C)(C)[C@@H]3C(=O)O)cc1 (some centres unmarked) [Example 44]
50

# next compound below
State the recorded MIC for this entry: CC(=O)N(C)C(=O)NC(C(=O)N[C@@H]1C(=O)N2[C@@H]1SC(C)(C)[C@@H]2C(=O)O)c1ccc(Cl)cc1 (some centres unmarked) [Example 121]
100

----------
Field: MIC. Provide a value for each of the compounds that follow.
System: E. coli C 165
TEST METHOD NOTES: MIC, liquid medium test tube series dilution test
Assay type: cell-based
PROTOCOL CONDITIONS: E. coli C 165, 24 hours, 37°C
Give bare numbers, in units/ml.

State the recorded MIC for this entry: CCOC(=O)N(C)C(=O)N[C@@H](C(=O)N[C@@H]1C(=O)N2[C@@H]1SC(C)(C)[C@@H]2C(=O)O)c1ccccc1
6.25

# next compound below
State the recorded MIC for this entry: Cc1ccccc1C(=O)N(C)C(=O)N[C@@H](C(=O)N[C@@H]1C(=O)N2[C@@H]1SC(C)(C)[C@@H]2C(=O)O)c1ccccc1
1.56

----------
System: Psdm. aerug. Bonn
TEST METHOD NOTES: MIC, liquid medium test tube series dilution test
Format: cell-based, Pseudomonas aerug.
PROTOCOL CONDITIONS: 24 hours, 37°C
MEASURED METRIC: MIC

State the recorded MIC for this entry: CN(C(=O)NC(C(=O)N[C@@H]1C(=O)N2[C@@H]1SC(C)(C)[C@@H]2C(=O)O)c1cccs1)C(=O)c1ccccc1Cl (stereo partly drawn)
400 units/ml

Next: Cc1noc(C)c1C(=O)N(C)C(=O)N[C@@H](C(=O)N[C@@H]1C(=O)N2[C@@H]1SC(C)(C)[C@@H]2C(=O)O)c1ccccc1
20-100 units/ml

Next: CC(=O)N(C)C(=O)NC(C(=O)N[C@@H]1C(=O)N2[C@@H]1SC(C)(C)[C@@H]2C(=O)O)c1cccs1 (stereo partly drawn)
200 units/ml

Next: CCCCCCCCCCCCCCCCCC(=O)N(C)C(=O)N[C@@H](C(=O)N[C@@H]1C(=O)N2[C@@H]1SC(C)(C)[C@@H]2C(=O)O)c1ccccc1
> 400 units/ml

Next: CC(=O)N(C)C(=O)N[C@@H](C(=O)N[C@@H]1C(=O)N2[C@@H]1SC(C)(C)[C@@H]2C(=O)O)c1ccccc1 [Example 66A]
6.25 units/ml

---
State the recorded MIC for this entry: CN(C(=O)CCC(F)(F)F)C(=O)N[C@@H](C(=O)N[C@@H]1C(=O)N2[C@@H]1SC(C)(C)[C@@H]2C(=O)O)c1ccccc1
12.5 units/ml

----------
Tested on: Psdm. aerug. Bonn
TEST METHOD NOTES: MIC, liquid medium test tube series dilution test
Assay type: cell-based, Pseudomonas aerug.
PROTOCOL CONDITIONS: 24 hours, 37°C
MEASURED METRIC: MIC

Some compounds with recorded MIC:
State the recorded MIC for this entry: CN(C(=O)N[C@@H](C(=O)N[C@@H]1C(=O)N2[C@@H]1SC(C)(C)[C@@H]2C(=O)O)c1ccccc1)C(=O)N1CCOCC1
50 units/ml

Next: CC(=O)N(C)C(=O)NC(C(=O)N[C@@H]1C(=O)N2[C@@H]1SC(C)(C)[C@@H]2C(=O)O)c1ccc(Cl)cc1 (stereo partly drawn)
100 units/ml

# next compound below
State the recorded MIC for this entry: C=CCN(C(=O)NC(C(=O)N[C@@H]1C(=O)N2[C@@H]1SC(C)(C)[C@@H]2C(=O)O)c1c(Cl)cccc1Cl)C(=O)c1ccccc1 (stereo partly drawn)
> 500 units/ml

----------
System: E. coli C 165
TEST METHOD NOTES: MIC, liquid medium test tube series dilution test
Format: cell-based
PROTOCOL CONDITIONS: E. coli C 165, 24 hours, 37°C
Cut-off 20 units/ml on MIC: below means T, at or above means F.

Worked examples, 2 compounds total:
Problem: For the compound CC1(C)S[C@@H]2[C@H](NC(=O)C(NC(=O)N3CCNC3=O)c3ccc(Cl)cc3)C(=O)N2[C@H]1C(=O)O (some centres unmarked) , is MIC under 20 units/ml?
F

Next: CN(C(=O)N[C@@H](C(=O)N[C@@H]1C(=O)N2[C@@H]1SC(C)(C)[C@@H]2C(=O)O)c1ccccc1)C(=O)OC1CCCCC1 [Example 67]
T

---
Problem: For the compound CC1(C)S[C@@H]2[C@H](NC(=O)[C@H](NC(=O)N(CCCl)C(=O)CCC(Cl)(Cl)Cl)c3ccccc3)C(=O)N2[C@H]1C(=O)O , is MIC under 20 units/ml?
F

Next: C=CCN(C(C)=O)C(=O)N[C@@H](C(=O)N[C@@H]1C(=O)N2[C@@H]1SC(C)(C)[C@@H]2C(=O)O)c1ccccc1 [Example 1]
F

----------
System: Staph. aureus 133
TEST METHOD NOTES: Surviving mice after intraperitoneal infection and subcutaneous therapy
Type: in vivo, white mice, CF1 strain
PROTOCOL CONDITIONS: 2 × 200 units/mouse s.c., 2 days
MEASURED METRIC: Number of surviving mice (%)
Answers are plain numbers, in %.

State the recorded Number of surviving mice for this entry: CN(C(=O)N[C@@H](C(=O)N[C@@H]1C(=O)N2[C@@H]1SC(C)(C)[C@@H]2C(=O)O)c1ccccc1)C(=O)c1ccccc1
70

Return reported Number of surviving mice values for all items listed beneath this line.
1. CC(=O)N(C)C(=O)N[C@@H](C(=O)N[C@@H]1C(=O)N2[C@@H]1SC(C)(C)[C@@H]2C(=O)O)c1ccccc1 [Example 66A]
2. COc1ccc(C(=O)N(C)C(=O)N[C@@H](C(=O)N[C@@H]2C(=O)N3[C@@H]2SC(C)(C)[C@@H]3C(=O)O)c2ccccc2)cc1[N+](=O)[O-]

1. 90
2. 70
